We begin with a simple list: items and their reported apparent KD of MS2 coat protein.
tested on: MS2 coat protein; assay: apparent KD of MS2 coat protein; designed switch direction (-1 OFF switch, 1 ON switch): -1; higher = weaker reporter binding; settings: input ligand: none

seq	test.system	apparent KD of MS2 coat protein, nM
UACACUGCAUGAGGAUCAAACAUGAGGAUCACCCAUGUAUAACAAGCUUUUUGCACGUCUUAUAAUUAUGUAGUGUA [Electric Eye 14 - Jieux - Sensor, turn-off variant 1] (Eterna round: R97, puzzle: Sensor, turn-off variant 1)	MS2 coat protein	16.2
GCUUGUAGAGGAUAUACGAGGGCCCGAGCGGAUAACACCGCACAUGAGGAUCACCCAUGUAGAAGGCUACCACC [Riquinza] (Eterna round: R96, puzzle: Exclusion 2)	MS2 coat protein	27.9
CUCGGACAUGAGGAUCACCCAUGUGAGGAUAUGAUGCGAUCGUCGAAAGACGAUAGCAUCAGAAGGUACAAAUG [Fiskers Ex 1 - 22] (Eterna round: R96, puzzle: Exclusion 1)	MS2 coat protein	50.3
GUAGAGUCAGGAUAUACAAGAUCGAAAGAUCAAAGAUCCAUACAUGAGGAUCACCCAUGUAGAAGGGACUCUAC [Eli x2 4.10] (Eterna round: R97, puzzle: Exclusion 2)	MS2 coat protein	22.4
GAAACCAGAGGAUAUGCGAAUAAAUAAAACUUUUUUUUUUAACAUGAGGAUCACCCAUGUAGAAGGCUGCAAAU [Ex2 #34] (Eterna round: R97, puzzle: Exclusion 2)	MS2 coat protein	32.7

---

system: MS2 coat protein; test: apparent KD of MS2 coat protein; designed switch direction (-1 OFF switch, 1 ON switch): -1; higher = weaker reporter binding; settings: input ligand: FMN 200 uM
# label = 1.0 if apparent KD of MS2 coat protein >= 60 nM else 0.0

seq	classification
GCAGCAUUAGGAUAUUGCUAAUGUAACAUGAGGAUCACCCAUGUGUGUCGUUAUUACUUAUAAGAAGGAAUGUGCC [Eternabot (L2) Solution 88] (Eterna round: R97, puzzle: Exclusion 5)	0.0
GUUAUGUCAGGAUAUGCUAAUGAUGAGUGAUCAGACAUGAUGUAGAAGGGACAUGAGGAUCACCCAUGUAAUAU [EX4 #8] (Eterna round: R97, puzzle: Exclusion 4)	1.0
GCUAUGCAAGGAUAUACAAGAUUAUGACAAGCGUGGAAACGACAUGAGGAUCACCCAUGUAGAAGGUGUUAUGC [Eternabot (L2) Solution 56] (Eterna round: R97, puzzle: Exclusion 2)	0.0
GAGUUAGCGUGUGGAAUAUACAUGAGGAUCACCCAUGUUAGCUUAUAUAUUGCUCGUCUUAUAACAACACUUAACUG [Mod JX-Electric-eye4] (Eterna round: R97, puzzle: Sensor, turn-off variant 1)	0.0
CUCCGGCGUGUAGGAUAUGGUUCCGUUUCGGUUCCAGAAGGACAUGAGGAUCACCCAUGUGCCUGUCGUCGGUCGUCACCGGGC [salish99_ExNG1_r04_217] (Eterna round: R96, puzzle: Exclusion NG 1)	0.0

---

system: K4 kissing-loop RNA reporter; assay: apparent KD of K4 kissing-loop reporter; higher = weaker reporter binding; conditions: Eterna round: R107; input ligand: theophylline 20 uM

seq	test.system	apparent KD of K4 kissing-loop reporter / nM
UGACAUUGCUCAGAUACCAGACACGAGGAUCACCCGUGUGCCAAAACGUACUAAAUAAGUGUCCCUUGGCAGCUGAGCAAUGUCU [TheoBX 13]	K4 kissing-loop RNA reporter	148
UAGGAGUGAUGUUCCAUAUCUUGAGCCGAAGGAGCGCCUUUCUAGGCAGGUAGGUCGCGGCAGAAGGUACCAGUGAUGUUGGAAA [Same State Arginine A GF7]	K4 kissing-loop RNA reporter	184
AAACUACGUGACGAUACCAGCUUACUCGGCAAGCCAGUGAUGUUGGUGAAAAGGAGUCAAAGCCCUUGGCAGCGUCGAAGGUUUG [Usandiat]	K4 kissing-loop RNA reporter	129
GCCGUAGAUUGAAGGAGCGCCGCACAUGUCCCGCUUAGUGUAGUGAUGUUACAGUGUCAGCGGCAGGUAGGUCGCAAUCUACGGC	K4 kissing-loop RNA reporter	123
AUGAGGAGCAGUGAUCCUAUUCCAUGGGAAGGAGCGUAGGAUACUACAGGUAGGUCGCCCAGUGAUGUUGGGCGCGUGCUCUUGG [Zaqua]	K4 kissing-loop RNA reporter	178
ACGUGCACCAGUGAUGUUGGAAAAUAUGAAGGAGCGGGAGAAAGCCCAGGUAGGUCGCAUAAUAGCACGAGCCACGAAAGUGGCA	K4 kissing-loop RNA reporter	141

---

Each entry below carries its reported apparent KD of MS2 coat protein.
system: MS2 coat protein; assay: apparent KD of MS2 coat protein; designed switch direction (-1 OFF switch, 1 ON switch): 1; higher = weaker reporter binding; conditions: input ligand: none

seq	apparent KD of MS2 coat protein
GCUUCACAUGAGGAUCACCCAUGUCUUCGGAGUCGAGGAUAUGGUAACUGUAAACAGUUGCCAGAAGGCGAGGAGC [SS1 - Son of Teenbexe v9] (Eterna round: R96, puzzle: Same State 1)	66 nM
UGUUUGUUGUGAGGAUAUACAUACACCUUACAUGAGGAUCACCCAUGUUUUAAUUUUGAUAGUUAGUAGAAGGCACAUGAUUAU [JR_SSNG2_Sub044] (Eterna round: R96, puzzle: Same State NG 2)	46.5 nM
UUAUCUUUCCGAGGAUAUCCAUAUAAUUUACAUGAGGAUCACCCAUGUUAUUGGGAGUUUUUUUAGGAGAAGGCGGUUGUAGAU [JR_SSNG2_Sub051] (Eterna round: R96, puzzle: Same State NG 2)	71.1 nM

---

tested on: K4 kissing-loop RNA reporter; experiment: apparent KD of K4 kissing-loop reporter; higher = weaker reporter binding; settings: Eterna round: R107; input ligand: theophylline 20 uM;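 also: bound reporter read as fluorescence of individual clusters on recovered sequencing chips by microscopy, with normalized cluster intensities fitted with a binding model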
The sequences listed here are annotated with their apparent KD of K4 kissing-loop reporter.

seq	apparent KD of K4 kissing-loop reporter [nM]
GCCAGUGCGCGAAGGAGCGCCGUGACAGGUUACUGCCUUGGGCAGUGAUGUUGCUCAAUCUGGCAGGUAGGUCGCGUGCACUGGC	204
CGCAUACCUGCGCUAGUAGUGAUGUUACAGCGAGGACCGGUACGGCCGCCACUCGUGACGGUCGCAAAACGCGUUGCAGAACACU [theeternabot_exclusion_KL_Trp_A_32]	253
UCCUAGGCUCGAAAGAGCCUAGGAUUUACUCAGGAUAUCCGGAAACGGAGAAGGGAGUGACUAGUGAUGUUAGGGACUCCCUAAA	108
UGAUUUAACUGAAGGAGCGGCAAUUGAGAAGGAAAUAUAGUGAUGUUAUAUAAGAGAGAGAGCCAGGUAGGUCGCAGAGGGAGGA [ExArgB.G]	198
AAUGCAUUGUGAAGGAGCGCGUUAAGCAGUGAUGUUGCUUUUAUAUUUUUCAGUUUUAUAUCGCAGGUAGGUCGCACUUUGCAUA [JR_Nu_SSArginiB_Sub029]	192
AAGCAGUCACUCGAAGCCAUCGAAGAUGGUCGAGGACCGGUACGGCCGCCACUCGGAGUGAUGUUCCGAAGACUGCAAAAUAAAA [#SwitchBubble 11]	273

---

system: MS2 coat protein; assay: apparent KD of MS2 coat protein; designed switch direction (-1 OFF switch, 1 ON switch): -1; higher = weaker reporter binding; settings: input ligand: FMN 200 uM
Classify as follows. Reported apparent KD of MS2 coat protein greater than or equal to 80 nM: t. Reported apparent KD of MS2 coat protein below: f.

seq	classification
UAUGGUUAAGUCAGGAUAUGCUCAUAGAGGUCUAUGCAGAAGGGACAUGAGGAUCACCCAUGUAUGGUCGUGUU [Ex4 #64] (Eterna round: R97, puzzle: Brourd's mod of Exclusion 4)	t
AACAGUCCUUAGGAUAUGUGCGAUUAAUAUCGUGCAGAAGGAUGGACAUGAGGAUCACCCAUGUAAAUACUACC [Omei Ex6 A17] (Eterna round: R97, puzzle: Exclusion 6)	f
CAACCUCACAACCGUUAAAACAUGAGGAUCACCCAUGUGCCAUAACGGCGCAUGAUCGAGCUAGGCCCGUCCAUGCA [Razaxe] (Eterna round: R96, puzzle: Sensor v2, turn-off variant)	f
CUCGUGCAGCUUUGCUGUACGAGUACAUGAGGAUCACCCAUGUAGGAUAUGGUACGCUUUGCGUGCUAGAAGGACGUGUGUAUG [JL EXNG3 1.39] (Eterna round: R96, puzzle: Exclusion NG 3)	t
CCCACAAGCUUUUUGCUCGACAUGAGGAUCACCCAUGUUGAAUGGGUUAGAUGUGUGUGAAACACACACAUCUACCU [-32.5, -55.3 kcal, A 27%] (Eterna round: R97, puzzle: Sensor, turn-off variant 1)	f
